Target: Tyrosine-protein phosphatase non-receptor type 1 (Homo sapiens, UniProt P18031)
Sequence (P18031 whole entry): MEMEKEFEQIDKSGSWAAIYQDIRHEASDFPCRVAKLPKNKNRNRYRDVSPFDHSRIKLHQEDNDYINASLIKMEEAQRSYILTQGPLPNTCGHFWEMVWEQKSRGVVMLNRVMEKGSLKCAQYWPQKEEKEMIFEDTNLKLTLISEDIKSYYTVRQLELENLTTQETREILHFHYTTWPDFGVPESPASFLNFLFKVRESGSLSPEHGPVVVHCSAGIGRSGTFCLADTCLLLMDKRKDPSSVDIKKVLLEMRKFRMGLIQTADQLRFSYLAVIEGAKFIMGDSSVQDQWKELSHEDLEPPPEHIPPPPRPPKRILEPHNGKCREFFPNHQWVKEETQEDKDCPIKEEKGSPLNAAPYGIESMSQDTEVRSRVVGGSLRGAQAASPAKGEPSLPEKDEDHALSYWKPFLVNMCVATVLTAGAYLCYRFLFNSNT
Experiment: Dissociation constant towards protein-tyrosine phosphatase 1B of human from 15N-labeled PTP1B was determined
EXPERIMENTAL_ENDPOINT: Kd (µM)
API: value field is a number in µM; no unit string.

Item Cc1cccc(N(C(=O)C(=O)O)c2ccccc2C(=O)O)c1C ; assay system Tyrosine-protein phosphatase non-receptor type 1 (Homo sapiens, UniProt P18031); Kd reported as 100

Recorded values, source ChEMBL document CHEMBL1136791.
